Tested on: GTPase KRas (Homo sapiens), P01116 [UNDEFINED MUTATION]
Sequence (P01116 whole entry, looked up, change not shown): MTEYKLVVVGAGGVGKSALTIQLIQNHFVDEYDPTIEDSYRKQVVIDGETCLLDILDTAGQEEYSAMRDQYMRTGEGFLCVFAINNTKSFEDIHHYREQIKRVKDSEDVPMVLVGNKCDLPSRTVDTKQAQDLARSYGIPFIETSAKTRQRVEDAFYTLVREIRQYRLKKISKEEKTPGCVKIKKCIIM
Assay: Inhibition of KRas mutant in human DLD1 cells assessed as cell viability by measuring ATP at 2 uM relative to control
Format: cell-based
Measurement Type: inhibition (%)
The figure you give is taken to be in %; do not add the unit.

Req: So what's the measured inhibition for this one? CCCCc1c2c(c(C)c3c1C(=O)OC3)Oc1ccccc1O2
Resp: 65

Req: Same again, this time with CCCCc1c2c(c(C)c3c1Oc1ccccc1O3)C(=O)OC2
Resp: 6

Req: Thanks! And CCCCCc1c2c(c(C)c3c1C(=O)OC3)Oc1ccc(OC)cc1O2 ?
Resp: 16

Req: Continue with CCCCCCc1c2c(c(C)c3c1C(=O)OC3)Oc1ccccc1O2
Resp: 50

Req: // repeat for Cc1c2c(c(CCCCBr)c3c1Oc1ccccc1O3)C(=O)OC2 and report
Resp: 45

Req: Another molecule to look at: CCCCCCc1c2c(c(C)c3c1Oc1ccccc1O3)C(=O)SC2
Resp: 6

Req: Again, but for CCCCCc1c2c(c(C)c3c1Oc1ccccc1O3)C(=O)OC2
Resp: 17

Req: Would you kindly repeat that for CCCCCCc1c2c(c(C)c3c1C(=O)SC3)Oc1ccccc1O2 ?
Resp: 7

Req: And then Cc1c2c(c(CCCCBr)c3c1C(=O)OC3)Oc1ccccc1O2 , what is it?
Resp: 0.4

Req: Again, but for CCCCCCc1c2c(c(C)c3c1Oc1ccccc1O3)C(=O)OC2
Resp: 49

Req: Next: CCCCCc1c2c(c(C)c3c1C(=O)OC3)Oc1ccccc1O2
Resp: 63

* * *

Record form. Attribute: inhibition. Fill in for each entry.
Test system: GTPase KRas (Homo sapiens), P01116 [UNDEFINED MUTATION]
Test: Inhibition of KRas mutant in human HCT116 cells assessed as cell viability by measuring ATP at 20 uM relative to control
Type: cell-based
Give just the numeric value; % need not be written.

Req: Requested read-out: inhibition. Entry: CCCCCc1c2c(c(C)c3c1C(=O)OC3)Oc1ccc(OC)cc1O2
Resp: 40

Req: Repeat for the following molecule: Cc1c2c(c(CCCCBr)c3c1Oc1ccccc1O3)C(=O)OC2
Resp: 76

Req: Another molecule to check: CCCCCCc1c2c(c(C)c3c1Oc1ccccc1O3)C(=O)SC2
Resp: 13

Req: What about this molecule? CCCCCCc1c2c(c(C)c3c1C(=O)OC3)Oc1ccccc1O2
Resp: 91

Req: Would you mind doing CCCCc1c2c(c(C)c3c1C(=O)OC3)Oc1ccccc1O2 as well?
Resp: 78

Req: Similarly, CCCCCc1c2c(c(C)c3c1C(=O)OC3)Oc1ccccc1O2 ?
Resp: 89

* * *

Test system: GTPase KRas (Homo sapiens), P01116 [UNDEFINED MUTATION]
Test: Inhibition of KRas mutant in human SW480 cells assessed as cell viability by measuring ATP at 2 uM relative to control
Assay type: cell-based
Measurement Type: inhibition (%)
Number only, in %; omit the unit.

Req: Query: inhibition; subject: CCCCCc1c2c(c(C)c3c1Oc1ccccc1O3)C(=O)OC2
Resp: 21

Req: What do you have for CCCCc1c2c(c(C)c3c1C(=O)OC3)Oc1ccccc1O2 ?
Resp: 73

Req: Queued: CCCCCCc1c2c(c(C)c3c1C(=O)SC3)Oc1ccccc1O2
Resp: 9

Req: Further, for CCCCCCc1c2c(c(C)c3c1Oc1ccccc1O3)C(=O)SC2 ?
Resp: 10
